This collection of values is drawn from the METLIN SMRT retention time set (Domingo-Almenara et al. 2019).

- assay-comment: gradient 5% acetonitrile 3 min, to 50% in 2 min, to 85% in 15 min, held 3 min, 100 µL/min
- measurement-parameters: column: Zorbax Extend-C18 2.1 x 50 mm; eluents: water / acetonitrile, 0.1% formic acid

compound: CCCn1cc(CCNC(=O)Nc2ccccc2Cl)c2cccnc21
units: s
RP-LC retention time: 812
--
compound: CCc1ccc(-c2csc(Nc3ccc(F)cn3)n2)cc1
units: s
RP-LC retention time: 1190
--
compound: Cc1cc(C(=O)Nc2nc3c(s2)CN(C(=O)c2cnn(-c4ccccc4)c2C)CC3)no1
units: s
RP-LC retention time: 712
--
compound: COc1ccc(CNC2=NCCNC23CCN(S(=O)(=O)c2ccc(C)cc2)CC3)cc1
units: s
RP-LC retention time: 732
--
compound: O=C(O)c1nnn(-c2cccc(Cl)c2)c1-c1cccnc1
units: s
RP-LC retention time: 680

* * *

- assay-comment: gradient 5% acetonitrile 3 min, to 50% in 2 min, to 85% in 15 min, held 3 min, 100 µL/min
- measurement-parameters: column: Zorbax Extend-C18 2.1 x 50 mm; eluents: water / acetonitrile, 0.1% formic acid
Examples of compounds with documented RP-LC retention time follow.
observed-property: RP-LC retention time (s)

compound: COC(=O)c1ccc(C2CC(=O)Nc3c(-c4ccc(OC)cc4)csc32)cc1 (centres undefined)
reported: 1000

compound: Cc1ccc(NC(=O)CSc2nnc3c4cc(-c5ccccc5)nn4ccn23)c(Cl)c1
reported: 957

compound: COc1cc(-c2nc3ncccn3c2Nc2c(C)cccc2C)ccc1O
reported: 683

compound: CC1CCCN(C(=O)c2cn(-c3ccc(-c4nc(C(C)(C)C)no4)cn3)cn2)C1 (centres undefined)
reported: 1080

compound: Cc1ccc(Cn2cccc(S(=O)(=O)N3CCCC3)c2=O)cc1
reported: 859

compound: O=C(NCC1CCN(c2cc(-c3cccnc3)[nH]n2)CC1)c1ccc2c(c1)OCO2
reported: 600

compound: O=C(NCc1cccc(Cl)c1)C1CCN(c2nnc(-c3ccccc3)o2)CC1
reported: 865

compound: O=C(NCc1ccc(F)cc1)C1CCN(c2cc(N3CCOCC3)ncn2)CC1
reported: 607

compound: O=C(c1cccs1)N1CCC(c2noc(-c3cnccn3)n2)C1 (centres undefined)
reported: 678

* * *

- assay-comment: gradient 5% acetonitrile 3 min, to 50% in 2 min, to 85% in 15 min, held 3 min, 100 µL/min
- measurement-parameters: column: Zorbax Extend-C18 2.1 x 50 mm; eluents: water / acetonitrile, 0.1% formic acid
Examples of molecules with documented RP-LC retention time follow.

molecule: O=C(NCC1CCN(c2cc(-c3ccncc3)[nH]n2)CC1)c1ccc2cc[nH]c2c1
RP-LC retention time [s]: 584
--
molecule: CCOC(=O)c1[nH]c(C)c(CCC(=O)Nc2cc(OC)cc(OC)c2)c1C
RP-LC retention time [s]: 880
--
molecule: O=C(NCCN1CCCCC1)c1ccc(I)cc1
RP-LC retention time [s]: 678
--
molecule: CCn1c(SCC(=O)Nc2ccc3c(c2)OCO3)nnc1-c1cn(C)nc1-c1ccc(Cl)cc1
RP-LC retention time [s]: 819
--
molecule: Cc1nnc(-c2cn(CC(=O)NCc3ccccc3Cl)c3ccccc23)o1
RP-LC retention time [s]: 821
--
molecule: CCN1C(=O)COc2ccc(-c3csc(NC(=O)c4ccc(OC)c(OC)c4)n3)cc21
RP-LC retention time [s]: 943
--
molecule: Cc1nc(-c2ccc(N3CCN(C(=O)COc4ccc(Cl)cc4)CC3)nc2)sc1C
RP-LC retention time [s]: 949
--
molecule: Cc1ccc(NC(=O)C(C)C2CCN(C(=O)Nc3ccc(Cl)cc3)CC2)cc1 (centres undefined)
RP-LC retention time [s]: 963
--
molecule: O=C(c1ccco1)N1CCC(Cc2noc(C3CC3)n2)C1 (centres undefined)
RP-LC retention time [s]: 709

* * *

- assay-comment: gradient 5% acetonitrile 3 min, to 50% in 2 min, to 85% in 15 min, held 3 min, 100 µL/min
- measurement-parameters: column: Zorbax Extend-C18 2.1 x 50 mm; eluents: water / acetonitrile, 0.1% formic acid
observed-property: RP-LC retention time (s)

compound: Cc1ccc(C)c(-n2ccn(Cc3nc(-c4ccc(F)cc4)no3)c(=O)c2=O)c1
observed-property: RP-LC retention time
reported: 910
--
compound: Cc1ccc(N(C)S(=O)(=O)c2cc(-c3[nH]ncc3C(=O)N3CCCCC3)oc2C)cc1
observed-property: RP-LC retention time
reported: 835
--
compound: NC(=O)CNC(=O)c1nc(-c2ccsc2)nc2c1OCCO2
observed-property: RP-LC retention time
reported: 613
--
compound: Cc1ccccc1-c1noc(Cn2c(=O)n(CC(C)C)c(=O)c3ccccc32)n1
observed-property: RP-LC retention time
reported: 1220
--
compound: CN(Cc1ccccc1)C(=O)c1nnc(-c2ccc(S(=O)(=O)N3CCCCC3)cc2)o1
observed-property: RP-LC retention time
reported: 1040
--
compound: Cc1ccccc1-c1noc(CN2N=NC3C(=O)N(c4ccc(F)c(F)c4)C(=O)C32)n1 (centres undefined)
observed-property: RP-LC retention time
reported: 804
--
compound: COc1cc(NC(=O)CN2C(=O)CCc3cc(Br)ccc32)cc(OC)c1OC
observed-property: RP-LC retention time
reported: 820
--
compound: O=C(NCc1ccccn1)C1CCN(S(=O)(=O)c2cc(C(=O)N3CCCCCC3)cs2)CC1
observed-property: RP-LC retention time
reported: 638
--
compound: CN1CC[C@@]23CCCC[C@@H]2[C@@H]1Cc1ccc(O)cc13
observed-property: RP-LC retention time
reported: 644

* * *

Examples of compounds with documented RP-LC retention time follow.
- assay-comment: gradient 5% acetonitrile 3 min, to 50% in 2 min, to 85% in 15 min, held 3 min, 100 µL/min
- measurement-parameters: column: Zorbax Extend-C18 2.1 x 50 mm; eluents: water / acetonitrile, 0.1% formic acid

compound: CCc1ccc(NC(=O)Cc2nnc3c(-c4nc(C5CC5)no4)cccn23)cc1
units: s
RP-LC retention time: 805
//
compound: Cc1ccc(N2CCC(NC(=O)c3ccccc3)C2=O)cc1C (stereo not given)
units: s
RP-LC retention time: 862
//
compound: CC(=O)Nc1ccc(S(=O)(=O)NCCc2csc(C)n2)cc1
units: s
RP-LC retention time: 600
//
compound: Cc1ccc(CNC(=O)Cn2c(=O)cc(-c3nc(C(C)C)no3)c3ccccc32)cc1
units: s
RP-LC retention time: 1010
//
compound: COc1ccc(-c2ccc(S(=O)(=O)NCc3ccc(C(=O)O)cc3)cc2)cc1
units: s
RP-LC retention time: 801

* * *

- assay-comment: gradient 5% acetonitrile 3 min, to 50% in 2 min, to 85% in 15 min, held 3 min, 100 µL/min
- measurement-parameters: column: Zorbax Extend-C18 2.1 x 50 mm; eluents: water / acetonitrile, 0.1% formic acid
Threshold 700 s: RP-LC retention time strictly smaller gives 1.0, otherwise 0.0.

compound: CN(C)c1ncccc1NC(=O)Nc1ccccc1F
label-class: 1.0
--
compound: O=C(NC1CCCCC1)C1CCCN(S(=O)(=O)c2cc(-c3noc(C4CCCC4)n3)cs2)C1 (centres undefined)
label-class: 0.0
--
compound: CN(C)c1cccc(C(=O)NC2CCN(c3cc(-c4cccs4)[nH]n3)C2)c1 (centres undefined)
label-class: 1.0
--
compound: Cc1ccc(N2C(=O)CN(CCc3cccs3)[C@H]3CS(=O)(=O)C[C@H]32)cc1
label-class: 0.0
--
compound: O=C1NC2(CCN(C(=O)Nc3cccc(C(F)(F)F)c3)CC2)N=C1c1ccccc1
label-class: 0.0
--
compound: CCOc1ccc(N2CC(CNS(=O)(=O)c3ccccc3C(F)(F)F)CC2=O)cc1 (centres undefined)
label-class: 0.0
--
compound: CCc1noc(NC(C)=O)c1-c1ccc(OC)c(S(=O)(=O)N(C)c2ccc(C)cc2)c1
label-class: 0.0
--
compound: Cc1ccc2c(c1)C(=O)NC1(CCN(C(=O)NCCc3ccccc3)CC1)N2C
label-class: 0.0
--
compound: CSc1ccc(CNC(=O)c2ccc3nc(CCc4ccc(NC(C)=O)cc4)[nH]c3c2)cc1
label-class: 1.0
--
compound: CC(=O)N1CCc2sc(C(=O)N3CCN(c4ccccc4)CC3)cc2C1
label-class: 0.0
--
compound: CCc1nc2cc(-c3noc(/C=C/c4ccc(OC)c(OC)c4)n3)ccc2o1
label-class: 0.0
--
compound: Cc1nc(-c2cccnc2)nc2c1CCC(=O)N2Cc1cccs1
label-class: 0.0
--
compound: CC1=C(c2ccccc2)S(=O)(=O)N=C1N1CCCN(C(=O)c2ccccc2C)CC1
label-class: 0.0
--
compound: N#Cc1ccccc1NC(=O)C(=O)NCC1CCN(C(=O)c2ccccc2F)CC1
label-class: 0.0

* * *

- assay-comment: gradient 5% acetonitrile 3 min, to 50% in 2 min, to 85% in 15 min, held 3 min, 100 µL/min
- measurement-parameters: column: Zorbax Extend-C18 2.1 x 50 mm; eluents: water / acetonitrile, 0.1% formic acid
observed-property: RP-LC retention time (s)

compound: O=S(=O)(c1ccc2nc(N3CCN(c4ccccn4)CC3)ccc2c1)N1CCCCC1
observed-property: RP-LC retention time
units: s
reported: 649
--
compound: COCCN1C(=O)c2ccccc2C(C(=O)NCc2ccc(F)cc2)C12CCCCC2 (stereo not given)
observed-property: RP-LC retention time
units: s
reported: 877
--
compound: CCN(C(=O)C1CCCN1S(=O)(=O)c1cc2c(cc1Cl)NC(=O)CO2)c1cccc(C)c1 (stereo not given)
observed-property: RP-LC retention time
units: s
reported: 816
--
compound: COCCc1noc(C2Cc3ccccc3N2C(=O)NCc2cccc(OC)c2)n1 (stereo not given)
observed-property: RP-LC retention time
units: s
reported: 618
--
compound: N#CCSC1=NS(=O)(=O)c2cc(F)ccc2N1
observed-property: RP-LC retention time
units: s
reported: 622
--
compound: CCOc1ccccc1NC(=O)Cn1c(-c2ccccc2)nc(CC)cc1=O
observed-property: RP-LC retention time
units: s
reported: 1320
--
compound: CC(C)CCNC(=O)C1Cn2cccc2C(=O)N1C (stereo not given)
observed-property: RP-LC retention time
units: s
reported: 668
--
compound: CNC(=O)c1cccn1Cc1ccc(F)cc1
observed-property: RP-LC retention time
units: s
reported: 791
--
compound: O=S(=O)(Cc1ccc(Cl)cc1)N1CCc2nc(-c3ccc(F)cc3)ncc2C1
observed-property: RP-LC retention time
units: s
reported: 1100
--
compound: CC(C)C(=O)N1CCc2c([nH]c3ccccc23)C12C(=O)Nc1ccc(Br)cc12 (stereo not given)
observed-property: RP-LC retention time
units: s
reported: 925
--
compound: Cc1ccc([N+](=O)[O-])cc1NC(=O)c1cccc([N+](=O)[O-])c1O
observed-property: RP-LC retention time
units: s
reported: 913
--
compound: CN(C)c1ccc(CCCNS(=O)(=O)c2ccc(Cl)s2)cc1
observed-property: RP-LC retention time
units: s
reported: 655
--
compound: O=C(NCc1cccs1)c1cccn1Cc1noc(-c2ccc(Cl)cc2)n1
observed-property: RP-LC retention time
units: s
reported: 1080
--
compound: Cc1ccc(-c2nnc(N3CCC(C(=O)NCCCN4CCCC4=O)CC3)o2)cc1
observed-property: RP-LC retention time
units: s
reported: 660
--
compound: COc1cc(OC)c(NC(=O)c2cnn(-c3ccccc3)c2)cc1Cl
observed-property: RP-LC retention time
units: s
reported: 944
--
compound: CCOC(=O)c1ccc(NC(=O)N2CCC(n3c(C(F)(F)F)nc4cccnc43)CC2)cc1
observed-property: RP-LC retention time
units: s
reported: 920
--
compound: Cc1ccc(CNC(=O)Cn2nc3c4ccc(Cl)cc4ncn3c2=O)cc1
observed-property: RP-LC retention time
units: s
reported: 753
--
compound: CCn1cc(S(=O)(=O)N2CCC(c3noc(-c4cccnc4)n3)C2)cn1 (stereo not given)
observed-property: RP-LC retention time
units: s
reported: 710
--
compound: Cc1cc(C)c(S(=O)(=O)N2CCC3(CC2)NCCN=C3NCc2ccccc2C)cc1C
observed-property: RP-LC retention time
units: s
reported: 815
--
compound: CC(C)NC(=O)N1CCC(c2noc(-c3cnccn3)n2)C1 (stereo not given)
observed-property: RP-LC retention time
units: s
reported: 624
